The following compounds are listed with their measured Euclidean distance values.
Test system: FB
test_summary: Euclidean distance of Cell Painting phenotypic profile (signed KS, 77 features) to DMSO centroid (dimensionless distance); 5 or 10 uM (library dependent); higher = stronger phenotypic change vs DMSO (phenoactivity)
condition: 48 h
Structures can show the parent of a compound that is named as a salt.

Use these answered entries as a reference point.
- compound: "COc1cc(OC)c(/C=C/S(=O)(=O)Cc2ccc(OC)c(NCC(=O)O)c2)c(OC)c1"
  attribute_measured: "Euclidean distance"
  result: 3.03
- compound: "Oc1cccc(O)c1 [Resorcinol]"
  attribute_measured: "Euclidean distance"
  result: 1.24
- compound: "O=C(CCCCCN1C(=O)c2cccc3cccc(c23)C1=O)NO [Scriptaid]"
  attribute_measured: "Euclidean distance"
  result: 3.75
- compound: "S=c1nc[nH]c2nc[nH]c12 [6-Mercaptopurine (6-MP) Monohydrate]"
  attribute_measured: "Euclidean distance"
  result: 0.989

Enquiry: Param item = C[C@]1(Cn2ccnn2)[C@H](C(=O)O)N2C(=O)C[C@H]2S1(=O)=O [Tazobactam] ; retrieve measured Euclidean distance.
Return: 0.984

Enquiry: What value of measured Euclidean distance is listed for Clc1cccc(Cl)c1NC1=NCCN1 [Clonidine HCl] ?
Return: 1.16

Enquiry: I'd like to know its Euclidean distance. The compound in question is C=CC(=O)Nc1cccc(Oc2nc(Nc3ccc(N4CCN(C)CC4)c(F)c3)nc3[nH]ccc23)c1 [Avitinib (AC0010)]
Return: 3.92

Enquiry: Report Euclidean distance for COc1cc(Nc2ncc(F)c(Nc3ccc4c(n3)N(COP(=O)(O)O)C(=O)C(C)(C)O4)n2)cc(OC)c1OC [R788 (Fostamatinib) Disodium] please.
Return: 3.19

Enquiry: Given the compound O=S(=O)(O)c1cc(O)ccc1O [Ethamsylate] , what is its reported Euclidean distance?
Return: 1.11

Enquiry: Euclidean distance lookup needed for C[C@H]1[C@H](OC(=O)CCC(=O)O)O[C@@H]2O[C@@]3(C)CC[C@H]4[C@H](C)CC[C@@H]1[C@@]24OO3 [Artesunate] , thanks.
Return: 1.66

Enquiry: Entry Cc1c(C(=O)NN2CCCCC2)nn(-c2ccc(Cl)cc2Cl)c1-c1ccc(Cl)cc1 [Rimonabant] : reported Euclidean distance = ?
Return: 0.895

Enquiry: For C[C@@H](O)[C@@H]1NC(=O)[C@H](CCCCN)NC(=O)[C@@H](Cc2c[nH]c3ccccc23)NC(=O)[C@H](Cc2ccccc2)NC(=O)[C@@H](NC(=O)[C@H](N)Cc2ccccc2)CSSC[C@@H](C(=O)N[C@H](CO)[C@@H](C)O)NC1=O [Octreotide Acetate] , what is its reported Euclidean distance?
Return: 0.734

Enquiry: Which Euclidean distance is reported for this compound? CN1CCN(Cc2ccc(Nc3ncc(Cl)c(Nc4ccccc4S(=O)(=O)N(C)C)n3)cc2)CC1
Return: 2.93

Enquiry: What value of Euclidean distance has been recorded for this entry: CCOc1ccc2c(-c3cccc(F)c3)nn(CC(=O)N(C)c3ccc4nc(C)oc4c3)c(=O)c2c1
Return: 0.808

Enquiry: So what's the measured Euclidean distance for this one? O=C(c1ccccc1)c1ccc2n1CCC2C(=O)O (stereo unspecified) [Ketorolac]
Return: 0.977

Enquiry: Value lookup for Euclidean distance; key = C[C@H]1CN(C[C@H](Cc2ccccc2)C(=O)NCC(=O)O)CC[C@@]1(C)c1cccc(O)c1 [Alvimopan dihydrate]
Return: 0.594

* * *

Test system: OVCAR4
test_summary: Euclidean distance of Cell Painting phenotypic profile (signed KS, 77 features) to DMSO centroid (dimensionless distance); 5 or 10 uM (library dependent); higher = stronger phenotypic change vs DMSO (phenoactivity)
condition: 48 h
Counter-ions that a name gives are not always drawn.
attribute_measured: Euclidean distance

Enquiry: May I ask what Euclidean distance has been recorded for COC(=O)/C=C/C(=O)OCCN1C(=O)CCC1=O ?
Return: 0.814

Enquiry: Sample C=CC(=O)N1CCC[C@@H](n2nc(-c3ccc(Oc4ccccc4)cc3)c3c(N)ncnc32)C1 — what was its Euclidean distance?
Return: 2.38

Enquiry: Given the compound CN1CCN(CCCN2c3ccccc3Sc3ccc(Cl)cc32)CC1 [Prochlorperazine dimaleate salt] , what is its reported Euclidean distance?
Return: 1.67

Enquiry: Value lookup for Euclidean distance; key = CN(C)CCCOc1nn(Cc2ccccc2)c2ccccc12 [Benzydamine HCl]
Return: 1.33

Enquiry: I would be grateful if you could share the reported Euclidean distance for COC(=O)C1=C(C)NC(C)=C(C(=O)OCCN(C)Cc2ccccc2)C1c1cccc([N+](=O)[O-])c1 (stereo not given) [Nicardipine HCl] .
Return: 1.31

* * *

System: DU145
test_summary: Euclidean distance of Cell Painting phenotypic profile (signed KS, 77 features) to DMSO centroid (dimensionless distance); 5 or 10 uM (library dependent); higher = stronger phenotypic change vs DMSO (phenoactivity)
condition: 48 h
attribute_measured: Euclidean distance
I'd appreciate a reply containing only the number, no unit.

Consider the worked cases shown below.
- molecule: "COc1ccccc1OCC(O)CO (configuration not stated)"
  tgt: "DU145"
  Euclidean distance: 1.4
- molecule: "Cc1ncc([N+](=O)[O-])n1C"
  tgt: "DU145"
  Euclidean distance: 1.15
- molecule: "CNC(=O)CN(CCN(CCN(CC(=O)[O-])CC(=O)NC)CC(=O)[O-])CC(=O)[O-].O.[Gd+3] [Gadodiamide Hydrate]"
  tgt: "DU145"
  Euclidean distance: 1.3

Enquiry: Param item = COC1=C(OC)C(=O)C(CCCCCCCCCCO)=C(C)C1=O ; retrieve measured Euclidean distance.
Return: 0.677

Enquiry: Field request: Euclidean distance | item: O=C(O)c1cc(=O)c2ccccc2o1
Return: 0.751

Enquiry: Quick one: Euclidean distance of C[N+]1(C)CCC(=C(c2ccccc2)c2ccccc2)CC1 [Diphemanil Methylsulfate] ?
Return: 1.02

Enquiry: Name the recorded Euclidean distance for O=c1c(O)c(-c2cc(O)c(O)c(O)c2)oc2cc(O)cc(O)c12 .
Return: 2.15

Enquiry: Which value of Euclidean distance has been reported for Cn1nnc(-c2ccc(-c3ccc(N4C[C@H](COP(=O)(O)O)OC4=O)cc3F)cn2)n1 [Tedizolid Phosphate] in the records?
Return: 0.82

Enquiry: Query: Euclidean distance; subject: COc1cccc(OC)c1C(=O)OCc1cc(O)ccc1O[C@@H]1O[C@H](CO)[C@@H](O)[C@H](O)[C@H]1O [Curculigoside]
Return: 0.819

* * *

Test system: FB
test_summary: Euclidean distance of Cell Painting phenotypic profile (signed KS, 77 features) to DMSO centroid (dimensionless distance); 5 or 10 uM (library dependent); higher = stronger phenotypic change vs DMSO (phenoactivity)
condition: 48 h
Counter-ions that a name gives are not always drawn.
attribute_measured: Euclidean distance
Lab note: jot the number down without any unit.

Sample answers from the record:
- compound: "COC(=O)Nc1ccc(-c2nc(N3CCOCC3)c3cnn(C4CCN(C(=O)OC)CC4)c3n2)cc1"
  Euclidean distance: 2.27
- compound: "CC(=O)Nc1nc(C)c(-c2ccc(Cl)c(S(=O)(=O)NCCO)c2)s1"
  Euclidean distance: 2.98

Enquiry: Reported Euclidean distance for FB, given CN(C)C(=O)c1cc2cnc(Nc3ccc(N4CCNCC4)cn3)nc2n1C1CCCC1 ?
Return: 3.9

Enquiry: Param readout= Euclidean distance; system= FB; entry= N#CCC1(n2cc(-c3ncnc4[nH]ccc34)cn2)CN(C2CCN(C(=O)c3ccnc(C(F)(F)F)c3F)CC2)C1 ; returns value.
Return: 1.34

Enquiry: What measured Euclidean distance is associated with CC1=C(/C=C/C(C)=C/C=C/C(C)=C\C(=O)O)C(C)(C)CCC1 on FB?
Return: 1.94

Enquiry: # value lookup — system FB, readout Euclidean distance, item COc1cc2nccc(Oc3ccc(NC(=O)Nc4cc(C)on4)c(Cl)c3)c2cc1OC
Return: 2.67

Enquiry: What reported Euclidean distance corresponds to N=C(N)Nc1ccc(C(=O)Oc2ccc3cc(C(=N)N)ccc3c2)cc1 [Nafamostat Mesylate] on FB?
Return: 1.02

Enquiry: Test system FB; read-out Euclidean distance; what value for CCOC(=O)[C@H](CCc1ccccc1)N[C@@H](C)C(=O)N1[C@H](C(=O)O)C[C@@H]2CCC[C@@H]21 ?
Return: 1.1

* * *

Test system: FB
test_summary: Euclidean distance of Cell Painting phenotypic profile (signed KS, 77 features) to DMSO centroid (dimensionless distance); 5 or 10 uM (library dependent); higher = stronger phenotypic change vs DMSO (phenoactivity)
condition: 48 h
// label = yes (1) if Euclidean distance is not less than 2, otherwise no (0)

Before answering, review these 5 worked examples.
- compound: "NC(=O)c1ccc(-c2nc(-c3ccccn3)c(-c3ccc4c(c3)OCO4)[nH]2)cc1"
  class_assignment: "no (0)"
- compound: "Cc1nnc(C(=O)NC(C)(C)c2nc(C(=O)NCc3ccc(F)cc3)c(O)c(=O)n2C)o1"
  class_assignment: "no (0)"
- compound: "C[C@@H](c1ncncc1F)[C@](O)(Cn1cncn1)c1ccc(F)cc1F"
  class_assignment: "no (0)"
- compound: "CC1CS(=O)(=O)CCN1/N=C/c1ccc([N+](=O)[O-])o1 (stereo unspecified)"
  class_assignment: "no (0)"
- compound: "C=CC(=O)N1CCC(Oc2cc3c(Nc4ccc(Cl)c(Cl)c4F)ncnc3cc2OC)CC1 [Poziotinib (HM781-36B)]"
  class_assignment: "yes (1)"

Enquiry: Is the recorded value of Euclidean distance equal to or greater than 2 for this compound? C[C@@H]1NC(=O)[C@@H](N)CNC(=O)[C@H](C2CCNC(=N)N2)NC(=O)/C(=C/NC(N)=O)NC(=O)[C@H](CNC(=O)CC(N)CCCN)NC1=O.N=C1NCC[C@H]([C@@H]2NC(=O)/C(=C/NC(N)=O)NC(=O)[C@H](CNC(=O)C[C@@H](N)CCCN)NC(=O)[C@H](CO)NC(=O)[C@@H](N)CNC2=O)N1 [Capreomycin Sulfate]
Return: no (0)

Enquiry: Test whether the compound CC(C)C[C@H](NC(=O)[C@@H](O)[C@H](N)Cc1ccccc1)C(=O)O records Euclidean distance of 2 or higher.
Return: no (0)

Enquiry: Quick check: does CCn1cc(C(=O)O)c(=O)c2ccc(C)nc21 have Euclidean distance greater than or equal to 2?
Return: no (0)

Enquiry: Quick check, Euclidean distance >= 2? CC(=O)CC/C=C(\C)CC/C=C(\C)CC/C=C(\C)CCC=C(C)C
Return: no (0)

Enquiry: Quick check: does Cc1ccc(S(=O)(=O)/C=C/C#N)cc1 have Euclidean distance greater than or equal to 2?
Return: yes (1)

Enquiry: Check if Euclidean distance >= 2 (inclusive). Item: C[C@H](NC(=O)Cc1cc(F)cc(F)c1)C(=O)N[C@@H]1C(=O)N(C)c2ccccc2-c2ccccc21
Return: no (0)

Enquiry: Is it the case that CNC(=O)c1ccc(N2C(=S)N(c3ccc(C#N)c(C(F)(F)F)c3)C(=O)C2(C)C)cc1F [Enzalutamide (MDV3100)] has Euclidean distance reaching or exceeding 2?
Return: no (0)

Enquiry: Is it the case that Oc1cccc(-c2nc(N3CCOCC3)c3oc4ncccc4c3n2)c1 has Euclidean distance reaching or exceeding 2?
Return: yes (1)
